# measured-target: T1, ClfA221-559 (S. aureus strain Newman, UniProt Q53653 221-559)
# T1 construct: Recombinant, expressed in E. coli and purified by nickel chelate chromatography; the tag is not described; also called ClfA N2N3; ClfAN2N3
# T1 sequence: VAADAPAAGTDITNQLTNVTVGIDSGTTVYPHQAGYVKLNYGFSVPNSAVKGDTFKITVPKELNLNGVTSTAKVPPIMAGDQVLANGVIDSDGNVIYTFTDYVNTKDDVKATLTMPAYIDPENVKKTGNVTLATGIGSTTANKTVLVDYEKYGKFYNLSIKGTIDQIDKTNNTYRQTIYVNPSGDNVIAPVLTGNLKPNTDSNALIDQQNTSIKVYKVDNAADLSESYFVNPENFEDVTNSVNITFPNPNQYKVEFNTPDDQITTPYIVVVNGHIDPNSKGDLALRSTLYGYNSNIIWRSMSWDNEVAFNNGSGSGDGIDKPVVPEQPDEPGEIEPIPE
# assay-method-text: SPR (Biacore), drawn table Ligand/analyte: GST-γ-peptide on the surface, ClfA221-559 as analyte
Where no end group is shown, it is not given here.
measure: Kd (µM)
Numbers only, in µM.

Could you tell me which Kd is on file for {GST}-GEGQQHHLGGAKQAGDV (other, domain: γ-peptide (carboxy terminal of the γ-chain); 'expressed and purified as described earlier'; also called GST-γ-peptide; GST tagged γ-peptide; not shown: GST tag) [GST-tagged Fg γ-peptide] ?
4.3
